- System: Hela
- test-summary: MTT assay, antiproliferative activity
- Type: cell-based
- test-conditions: Homo sapiens, 48 h, ± SD
- Procedure: The in vitro anticancer activities of the prepared compounds against HepG2, Hela, MCF-7, A549, HT-29 and SSC-4 cell lines were evaluated as described in the literature. […] The absorbance at 570 nm of each well was measured with Synergy™ 2 Multi-Mode Microplate Reader. Cell viability (%) was calculated using the following equation: cell viability (%) = (Atreatment/Acontrol) × 100%. The data represented the mean of three independent experiments in triplicate and were expressed as means ± SD.
Record form. Attribute: log10 of IC50. Fill in for each entry.
Scale: decimal log of IC50, IC50 in µM.

Please state, for each entry, its recorded log10 of IC50.
1. CCn1cc(C(=O)Nc2cc(OC)c(OC)c(OC)c2)c2ccccc21
2. CCCn1cc(C(=O)N/N=C/c2cc(OC)c(OC)c(OC)c2)c2ccccc21
3. COc1cc(C(=O)/C=C\c2cn(Cc3ccccc3)c3ccccc23)cc(OC)c1OC
4. CCn1cc(/C=C\C(=O)c2cc(OC)c(OC)c(OC)c2)c2ccccc21
5. CCCn1cc(/C=C\C(=O)c2cc(OC)c(OC)c(OC)c2)c2ccccc21

## Result
1.55
1.76
0.68
1.53
1.83

Please state, for each entry, its recorded log10 of IC50.
1. CCn1cc(C(=O)N/N=C/c2cc(OC)c(OC)c(OC)c2)c2ccccc21
2. COc1cc(C(=O)/C=C\c2cn(C)c3ccccc23)cc(OC)c1OC
3. COc1cc(/C=N/NC(=O)c2cn(C)c3ccccc23)cc(OC)c1OC
4. CCCn1cc(C(=O)Nc2cc(OC)c(OC)c(OC)c2)c2ccccc21
5. COc1cc(NC(=O)c2cn(C)c3ccccc23)cc(OC)c1OC
6. COc1ccc(/C=C\c2cc(OC)c(OC)c(OC)c2)cc1O

## Result
1. 1.38
2. 1.38
3. 0.93
4. 1.89
5. 1.43
6. 0.74

## Task Lookup: log10 of IC50 / Hela / `COc1cc(NC(=O)c2cn(Cc3ccccc3)c3ccccc23)cc(OC)c1OC`
## Result 0.76

====

- test-system: colchicine-binding site of tubulin
- test-summary: [3H] Colchicine-tubulin binding assay
- test-conditions: 37 °C, 60 min; read-out: IC50, competition with [3H]colchicine binding to tubulin
property-measured: IC50 (µM)
Give bare numbers, in µM.

## Task # lookup: IC50 of `COc1ccc(/C=C\c2cc(OC)c(OC)c(OC)c2)cc1O`
## Result 4.96
